Origin of values: the RNAGym collection of RNA variant scans (doi:10.1073/pnas.2313332121)

B1: TPR t1 (parent)
chain: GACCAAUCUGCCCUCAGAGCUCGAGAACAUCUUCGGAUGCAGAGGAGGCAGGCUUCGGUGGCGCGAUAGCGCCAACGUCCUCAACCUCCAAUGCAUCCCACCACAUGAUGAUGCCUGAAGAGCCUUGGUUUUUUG

- Variants of: B1
- Assay notes: polymerase ribozyme fitness, log enrichment relative to wild type (log ratio); higher = more active; in vitro selection for triplet polymerase activity
Rule: polymerase ribozyme fitness (log ratio) of -2 or more gives TRUE; anything lower gives FALSE.

Asked: Would you say GACCAAUCUGCCCUCUGAGCUCGAGAACAUCUUCGGAUGCAGAGGAGGCAGGCUUCGGUGGCGCGAUAGCGCCAACGUCCUCAACCUCCAAUGCAUCCCACCACAUGAUGAUACCUGAAGAGCCUUGGUUUUUUG shows polymerase ribozyme fitness (log ratio) at minimum -2?
Given back: FALSE

Asked: Would you say GACCAAUCUGUCCUCAGAGUUCGAGAACAUCUUCGGAUGCAGAGGAGGCAGGCUUCGGUGGCACGAUAGCGCCAACGUCCUCAACCCCCAAUGCAUCCCACCACAUGAUGAUGCCUGAAGAGCCUUGGUUUUUUG shows polymerase ribozyme fitness (log ratio) at minimum -2?
Given back: TRUE

Asked: Would you say GACCAAUCUGCCCUCACUGCUCGAGAACAUCUUCGGAUGUAGAGGAGGCAGGCUUGGGUGGCGCGAUAGGGCCAACGUCCUCAACCUCCAAUGCAUCCCACCACAUGGUGUUGCCUGAAGAGCCUUGGUUUUUUG shows polymerase ribozyme fitness (log ratio) at minimum -2?
Given back: FALSE

Asked: Would you say GACCAAUCUGCCCUCAGAGCUCGAGAACAUCUUCGGAUGCAGAGGAGGCAGGCUUCGGUGGCGCGAUAGCGCCAACGUCCUCAACCUCCAAUGCAUCCCACCACAUGAUGAUCCCUGAAGAUCCUUGGUUUUUUG shows polymerase ribozyme fitness (log ratio) at minimum -2?
Given back: TRUE

Asked: Would you say GACCAAUCUGCCCUCAGAGCUCGAGAACAUCUUCGGAUGAAGAGGAGGCAGGCUUCGGUGGCGCGAUAGUGCCAACGUCCUCAACCUCCAAUGCAUCCCACCACAUGAUGAUGCCUGAAGAGCUUUGGUUUUUUG shows polymerase ribozyme fitness (log ratio) at minimum -2?
Given back: TRUE

Asked: Would you say GACCAAUCUGCCCUCAGAGCUCGAGAACAUCUUCGGAUGCAGAGGAGGCAGGCUUCGGUGGCGCGAUAGCGCCAACGUCCUCAACCUCCAAUGCAUCCCACCACAUGAUGAUACCUGAAGAACCUUGGUUUUUUG shows polymerase ribozyme fitness (log ratio) at minimum -2?
Given back: FALSE
